Target: T1, human CD3 expressed on cells (human, UniProt P07766 23-207; P04234 22-171; P09693 23-182)
T1 construct: whole, on cells; CD3 complex on Jurkat cells and on human primary T cells
T1 sequence (P07766 23-207, chain 1 of 3): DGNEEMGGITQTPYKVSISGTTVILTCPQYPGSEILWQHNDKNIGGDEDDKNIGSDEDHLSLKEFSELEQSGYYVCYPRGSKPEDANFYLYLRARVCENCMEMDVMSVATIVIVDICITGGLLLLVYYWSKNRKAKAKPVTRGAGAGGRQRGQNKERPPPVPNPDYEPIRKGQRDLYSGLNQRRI
T1 sequence (P04234 22-171, chain 2 of 3): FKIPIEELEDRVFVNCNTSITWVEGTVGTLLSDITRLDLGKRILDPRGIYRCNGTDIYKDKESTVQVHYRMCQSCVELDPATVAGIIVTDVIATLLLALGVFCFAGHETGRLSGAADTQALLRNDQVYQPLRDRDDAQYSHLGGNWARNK
T1 sequence (P09693 23-182, chain 3 of 3): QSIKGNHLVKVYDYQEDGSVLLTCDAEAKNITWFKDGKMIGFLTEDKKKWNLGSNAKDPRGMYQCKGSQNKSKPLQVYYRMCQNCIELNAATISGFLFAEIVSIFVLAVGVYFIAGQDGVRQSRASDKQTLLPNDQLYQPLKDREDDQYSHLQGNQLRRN
Experiment: flow cytometry, 25 nM
observed.property: Human primary T Cell Binding (FOI)
State the answer as a number, implicitly in FOI.

| binder | Human primary T Cell Binding (FOI) |
| --- | --- |
| mAb 53 (antibody, V domains shown) VH: QVQLVQSGAEVKKPGASVKVSCKASGYTFTSYDINWVRQATGQGLEWMGWMNPKSGKTGYAQKFQGRITMTRNTPISTVYMDLSSLRSEDTAVYYCAREGHYDFWTGYYSFDYWGQGTLVTVSS VL: DIQMTQSPSSLSASVGDRVTITCRASQGIRNDLGWYQQTPGKAPKRLIYAASSLQSGVPSRFSGSGSGTEFTLTISSLQPEDFATYYCLQHYSYPYTFGQGTKLEIK | 34.8 |

Any idea what its Human primary T Cell Binding (FOI) is? The binder is mAb 43 (antibody, V domains shown) VH: QAQLVQSGSELKKPGASVKVSCKASGYTFTKHSMNWVRQAPGQGLEWMGWINTNTGNPMYAQGFTGRFVFSLDTSVTTAYLQISSLKAEDTAVYYCAREGDYDFWSGFFNFDYWGQGTLVTVSS VL: DIQMTQSPSSLSASVGDRVTITCRASQGIRNDLGWYQQKPGKAPKRLIYAASSLQSGVPSRFSGSGSGAEFTLTISSLQPEDFATYYCLQHNSYPRTFGQGTKVEIK
83.3

Data origin: patent US20230295310A1
